Sequence of the target: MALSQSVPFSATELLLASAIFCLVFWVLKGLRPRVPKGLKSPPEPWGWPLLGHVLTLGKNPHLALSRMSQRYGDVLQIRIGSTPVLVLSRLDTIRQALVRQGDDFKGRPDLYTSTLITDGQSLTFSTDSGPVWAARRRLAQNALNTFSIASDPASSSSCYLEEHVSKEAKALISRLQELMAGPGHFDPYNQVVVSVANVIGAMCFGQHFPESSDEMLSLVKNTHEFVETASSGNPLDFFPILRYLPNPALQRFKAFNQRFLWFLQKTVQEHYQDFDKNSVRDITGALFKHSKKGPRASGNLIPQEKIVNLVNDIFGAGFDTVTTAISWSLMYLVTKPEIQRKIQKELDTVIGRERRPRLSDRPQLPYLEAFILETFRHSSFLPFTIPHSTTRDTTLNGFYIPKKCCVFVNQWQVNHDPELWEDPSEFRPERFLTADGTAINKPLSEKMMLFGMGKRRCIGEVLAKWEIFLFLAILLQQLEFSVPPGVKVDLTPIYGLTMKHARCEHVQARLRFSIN
pIC50: −log10 of the molar value.
measurement kind: pIC50

*Q* Determine its reported pIC50: Cc1nc(NC2CCCC2)sc1-c1ccnc(Nc2ccc(N3CCOCC3)cn2)n1
*A* < 4.60

====

- assay details: Volume of distribution at steady state in BALB/c mouse at 2 mg/kg, iv up to 24 hrs by LC-MS/MS analysis
- Type: ADME, organism-based
- details: in vivo, read-out: Vdss
measurement kind: Vd
Reply with a number, then the unit it belongs to.

*Q* Determine its reported Vd: Cc1nc(NC2CCCC2)sc1-c1ccnc(Nc2ccc(N3CCOCC3)cn2)n1
*A* 5.6 L/kg

====

- assay details: AUC (0 to t) in BALB/c mouse at 2 mg/kg, iv up to 24 hrs by LC-MS/MS analysis
- Assay type: ADME, organism-based
- Design: dose 2 mg/kg, time < 24 hr, route intravenous
- details: in vivo
measurement kind: AUC(0-t) at 24 h
Reply with a number, then the unit it belongs to.

*Q* Determine its reported AUC(0-t) at 24 h: Cc1nc(NC2CCCC2)sc1-c1ccnc(Nc2ccc(N3CCOCC3)cn2)n1
*A* 1.2 µM·h

====

log10(GI50) listing for selected compounds.
- Tested on: MDA-MB-453
- assay details: Growth inhibition of human MDA-MB-453 cells after 72 hrs by MTT assay
- Type: functional
- details: MDA-MB-453, 72 h
Reminder: these figures are log10 of reported GI50, in nM before transformation.

Cc1nc(NC2CCCC2)sc1-c1ccnc(Nc2ccc(N3CCCCC3)cn2)n1: 3.85

*Q* Determine its reported log10(GI50): Cc1nc(NC2CCCC2)sc1-c1ccnc(Nc2ccc(N3CCN(C)CC3)cn2)n1
*A* 2.11

*Q* Determine its reported log10(GI50): Cc1nc(NC2CCCC2)sc1-c1ccnc(Nc2ccc(N3CCOCC3)cn2)n1
*A* 3.57

*Q* Determine its reported log10(GI50): O=CN1CCN(c2ccc(Nc3nccc(-c4sc(NC5CCCC5)nc4C(F)(F)F)n3)nc2)CC1
*A* 2.53

*Q* Determine its reported log10(GI50): CCN1CCN(Cc2ccc(Nc3ncc(F)c(-c4sc(NC5CCCC5)nc4C)n3)nc2)CC1
*A* 2.79

====

- target of assay: Cyclin-dependent kinase 4/cyclin D1 (Homo sapiens)
- Sequence (P11802 whole entry): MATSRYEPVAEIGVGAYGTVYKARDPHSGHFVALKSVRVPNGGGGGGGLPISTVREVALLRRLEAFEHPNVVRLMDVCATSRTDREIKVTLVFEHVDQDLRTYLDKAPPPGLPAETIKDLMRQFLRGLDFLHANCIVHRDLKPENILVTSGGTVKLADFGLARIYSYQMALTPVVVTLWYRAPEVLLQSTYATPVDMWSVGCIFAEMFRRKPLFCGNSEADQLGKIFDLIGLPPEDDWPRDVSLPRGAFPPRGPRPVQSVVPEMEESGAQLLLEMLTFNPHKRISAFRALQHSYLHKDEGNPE
- Sequence (P24385 whole entry, further chain): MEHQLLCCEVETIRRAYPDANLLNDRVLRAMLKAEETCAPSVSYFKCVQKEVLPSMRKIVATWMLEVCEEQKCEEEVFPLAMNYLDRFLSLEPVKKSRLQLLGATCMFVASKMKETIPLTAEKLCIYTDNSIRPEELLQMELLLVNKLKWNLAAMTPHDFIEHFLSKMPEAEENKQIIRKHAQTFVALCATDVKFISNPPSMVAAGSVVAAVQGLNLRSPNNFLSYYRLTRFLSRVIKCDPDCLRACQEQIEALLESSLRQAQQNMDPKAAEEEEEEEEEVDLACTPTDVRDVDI
- assay details: Inhibition of CDK4/cyclin D1 (unknown origin) in presence of [gamma-33P]-ATP […]
- details: read-out: Ki(app)
pKi listing for selected compounds.
# log scale: pKi equals minus log10 of the concentration in mol/L

*Q* Determine its reported pKi: Cc1nc(NC2CCCC2)sc1-c1ccnc(Nc2ccc(N3CCN(S(C)(=O)=O)CC3)cn2)n1
*A* 8.15

*Q* Determine its reported pKi: Cc1nc(NC2CCCC2)sc1-c1ccnc(Nc2ccc(N3CCOCC3)cn2)n1
*A* 8.40

*Q* Determine its reported pKi: Cc1nc(NC2CCCC2)sc1-c1nc(Nc2ccc(N3CCN(C)CC3)cn2)ncc1F
*A* 9.00

*Q* Determine its reported pKi: Cc1nc(N(C2CCCC2)C2CCCC2)sc1-c1ccnc(Nc2ccc(N3CCNCC3)cn2)n1
*A* 7.15

====

- assay details: Cmax in BALB/c mouse at 2 mg/kg, iv up to 24 hrs by LC-MS/MS analysis
- Format: ADME, organism-based
- Set-up: dose 2 mg/kg, route intravenous
- details: in vivo
measurement kind: Cmax (nM)
# number only, unit nM dropped from output

*Q* Determine its reported Cmax: Cc1nc(NC2CCCC2)sc1-c1ccnc(Nc2ccc(N3CCOCC3)cn2)n1
*A* 2300

====

- target of assay: Cyclin-dependent kinase 1/cyclin B1 (Homo sapiens, UniProt P06493)
- Sequence (P06493 whole entry): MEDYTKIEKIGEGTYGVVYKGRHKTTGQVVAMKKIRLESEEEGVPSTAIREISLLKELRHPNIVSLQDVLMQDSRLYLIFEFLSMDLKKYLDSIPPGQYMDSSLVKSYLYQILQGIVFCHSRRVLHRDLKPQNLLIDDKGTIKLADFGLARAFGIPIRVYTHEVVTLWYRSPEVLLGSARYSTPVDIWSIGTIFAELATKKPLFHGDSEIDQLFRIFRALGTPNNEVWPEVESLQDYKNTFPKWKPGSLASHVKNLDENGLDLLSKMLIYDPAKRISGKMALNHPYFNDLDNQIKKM
- Sequence (P14635 whole entry, further chain): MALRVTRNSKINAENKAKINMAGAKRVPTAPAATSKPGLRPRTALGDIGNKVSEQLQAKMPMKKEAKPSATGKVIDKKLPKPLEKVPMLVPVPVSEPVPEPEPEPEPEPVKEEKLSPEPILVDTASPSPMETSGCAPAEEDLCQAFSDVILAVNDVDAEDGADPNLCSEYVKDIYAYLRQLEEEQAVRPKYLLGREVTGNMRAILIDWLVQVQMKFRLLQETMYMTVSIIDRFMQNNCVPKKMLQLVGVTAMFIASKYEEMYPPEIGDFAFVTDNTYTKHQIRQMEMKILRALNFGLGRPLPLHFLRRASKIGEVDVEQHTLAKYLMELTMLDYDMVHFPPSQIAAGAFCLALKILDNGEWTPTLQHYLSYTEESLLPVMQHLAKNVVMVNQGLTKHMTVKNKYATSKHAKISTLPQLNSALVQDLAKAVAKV
- assay details: Inhibition of CDK1/cyclin B (unknown origin) in presence of [gamma-33P]-ATP […]
- details: read-out: Ki(app)
pKi: −log10 of the molar value.
pKi listing for selected molecules.

Examples from the recorded data:
CC(=O)N1CCN(c2ccc(Nc3ncc(F)c(-c4sc(NC5CCCC5)nc4C)n3)nc2)CC1: < 5.30
Cc1nc(NC2CCCC2)sc1-c1nc(Nc2ccc(N3CCN(C)CC3)cn2)ncc1F: 5.63
Cc1nc(NC2CCCC2)sc1-c1ccnc(Nc2ccc(N3CCNCC3)cn2)n1: < 5.30
Cc1nc(NC2CCCC2)sc1-c1ccnc(Nc2ccc(N3CCN(S(C)(=O)=O)CC3)cn2)n1: 5.96
CCN1CCN(Cc2ccc(Nc3nccc(-c4sc(NC5CCCC5)nc4C)n3)nc2)CC1: < 5.30

*Q* Determine its reported pKi: Cc1nc(N(C2CCCC2)C2CCCC2)sc1-c1ccnc(Nc2ccc(N3CCNCC3)cn2)n1
*A* < 5.30

*Q* Determine its reported pKi: Cc1nc(N(C)c2ccccc2)sc1-c1ccnc(Nc2ccc(N3CCN(C)CC3)cn2)n1
*A* < 5.30

*Q* Determine its reported pKi: Cc1nc(N(C)C2CCCC2)sc1-c1ccnc(Nc2ccc(N3CCN(C)CC3)cn2)n1
*A* < 5.30

*Q* Determine its reported pKi: Cc1nc(NC2CCCC2)sc1-c1nc(Nc2ccc(N3CCCNCC3)cn2)ncc1F
*A* < 5.30

====

- target of assay: Cytochrome P450 3A4 (Homo sapiens)
- Sequence (P08684 whole entry): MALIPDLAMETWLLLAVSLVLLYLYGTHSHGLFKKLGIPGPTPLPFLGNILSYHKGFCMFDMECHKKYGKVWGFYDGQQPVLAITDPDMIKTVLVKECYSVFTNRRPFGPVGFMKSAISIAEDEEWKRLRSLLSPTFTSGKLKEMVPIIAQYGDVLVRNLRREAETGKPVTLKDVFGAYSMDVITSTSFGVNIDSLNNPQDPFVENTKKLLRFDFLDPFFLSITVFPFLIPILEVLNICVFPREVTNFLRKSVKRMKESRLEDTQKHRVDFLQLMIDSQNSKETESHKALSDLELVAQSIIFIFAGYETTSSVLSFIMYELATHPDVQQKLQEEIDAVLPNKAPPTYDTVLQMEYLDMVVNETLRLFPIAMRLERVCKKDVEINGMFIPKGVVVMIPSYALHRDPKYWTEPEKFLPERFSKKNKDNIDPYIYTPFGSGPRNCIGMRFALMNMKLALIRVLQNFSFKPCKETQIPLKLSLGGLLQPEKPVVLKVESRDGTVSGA
measurement kind: IC50

*Q* State measured IC50 of the molecule Cc1nc(NC2CCCC2)sc1-c1ccnc(Nc2ccc(N3CCOCC3)cn2)n1 with Cytochrome P450 3A4 (Homo sapiens).
*A* > 25 µM

====

- assay details: Dissociation constant, pKa of the compound by pH-metric titration method
- Type: physicochemical
measurement kind: pKa

*Q* Determine its reported pKa: Cc1nc(NC2CCCC2)sc1-c1ccnc(Nc2ccc(N3CCOCC3)cn2)n1
*A* 3.98 to 5.68

====

- assay details: Clearance in albino Wistar rat at 5 mg/kg, iv up to 24 hrs by LC-MS/MS analysis
- Assay type: ADME, organism-based
- details: in vivo
measurement kind: clearance
Reply with a number, then the unit it belongs to.

*Q* Determine its reported clearance: Cc1nc(NC2CCCC2)sc1-c1ccnc(Nc2ccc(N3CCOCC3)cn2)n1
*A* 11.8 mL/min/kg

====

GI50 listing for selected molecules.
- Test system: MDA-MB-453
- assay details: Growth inhibition of human MDA-MB-453 cells after 72 hrs by MTT assay
- Format: functional
- details: MDA-MB-453, 72 h

*Q* Determine its reported GI50: CC(=O)c1c(C)c2cnc(Nc3ccc(N4CCNCC4)cn3)nc2n(C2CCCC2)c1=O [PALBOCICLIB]
*A* 326 nM

*Q* Determine its reported GI50: Cc1nc(NC2CCCC2)sc1-c1nc(Nc2ccc(N3CCN(C)CC3)cn2)ncc1F
*A* 202 nM

*Q* Determine its reported GI50: CC(=O)N1CCN(c2ccc(Nc3nccc(-c4sc(NC5CCCC5)nc4C)n3)nc2)CC1
*A* 591 nM

*Q* Determine its reported GI50: CC(=O)N1CCN(c2ccc(Nc3ncc(F)c(-c4sc(NC5CCCC5)nc4C)n3)nc2)CC1
*A* 8110 nM

*Q* Determine its reported GI50: CC(=O)N1CCN(c2ccc(Nc3nccc(-c4sc(NC5CCCC5)nc4C(F)(F)F)n3)nc2)CC1
*A* 77 nM

*Q* Determine its reported GI50: Cc1nc(NC2CCCC2)sc1-c1ccnc(Nc2ccccn2)n1
*A* 4380 nM

*Q* Determine its reported GI50: CCN1CCN(Cc2ccc(Nc3nccc(-c4sc(NC5CCCC5)nc4C)n3)nc2)CC1
*A* 69 nM

*Q* Determine its reported GI50: Cc1nc(NC2CCCC2)sc1-c1ccnc(Nc2ccc(N3CCCNCC3)cn2)n1
*A* 102 nM

*Q* Determine its reported GI50: Cc1nc(NC2CCCC2)sc1-c1nc(Nc2ccc(N3CCCNCC3)cn2)ncc1F
*A* 83 nM

====

- assay details: Tmax in albino Wistar rat at 20 mg/kg administered via oral gavage measured up to 24 hrs by LC-MS/MS analysis
- Type: ADME, organism-based
- details: in vivo
measurement kind: Tmax (h)
# number only, unit h dropped from output

*Q* Determine its reported Tmax: Cc1nc(NC2CCCC2)sc1-c1ccnc(Nc2ccc(N3CCOCC3)cn2)n1
*A* 3.7
